- measured target: Inosine-5'-monophosphate dehydrogenase 2 (Homo sapiens, UniProt P12268)
observed property: Ki (nM)

Examples with their reported Ki follow.
NC(=O)c1csc([C@@H]2O[C@H](COP(=O)(O)OP(=O)(O)OC[C@H]3O[C@@H](n4cnc5c(N)nc(-c6ccccc6)nc54)[C@H](O)[C@@H]3O)[C@@H](O)[C@H]2O)n1
143
C=Cc1nc(N)c2ncn([C@@H]3O[C@H](COP(=O)(O)OP(=O)(O)OC[C@H]4O[C@@H](c5nc(C(N)=O)cs5)[C@H](O)[C@@H]4O)[C@@H](O)[C@H]3O)c2n1
94
NC(=O)c1csc([C@@H]2O[C@H](COP(=O)(O)OP(=O)(O)OC[C@H]3O[C@@H](n4cnc5c(N)nc(NCc6ccccc6)nc54)[C@H](O)[C@@H]3O)[C@@H](O)[C@H]2O)n1
169

A: NC(=O)c1csc([C@@H]2O[C@H](COP(=O)(O)OP(=O)(O)OC[C@H]3O[C@@H](n4cnc5c(N)nc(Nc6ccccc6)nc54)[C@H](O)[C@@H]3O)[C@@H](O)[C@H]2O)n1
B: NC(=O)c1csc([C@@H]2O[C@H](COP(=O)(O)OP(=O)(O)OC[C@H]3O[C@@H](n4cnc5c(N)nc(NCCc6ccccc6)nc54)[C@H](O)[C@@H]3O)[C@@H](O)[C@H]2O)n1
Prompt: Between A and B , whose measured Ki reads higher? Mark your selection by writing its label.
Response: B
(B: 255 nM, A: 153 nM)
